Overview of reported protein stability index across a group of sequences:
Assay: protein stability index of a GFP-peptide fusion (yeast GPS) (PSI 1-4); higher = more stable; sorted into four equal gates, so the index is relative within each strain
Details: san1∆
recorded_endpoint: protein stability index

>>> print(df.to_string())
                     sequence_input  reported_result
0          DEMYELTDPMTVMFFYH [DIB1]             2.83
1          HEKIEDEDEDNDLDEDD [RPN4]             3.55
2  IKSQYYSRISKLKQLLD [YIL149C/MLP2]             1.64
3          TRSWRPPQAGDRSLADD [RPB8]             3.32
4         GILGNKAQAKMDKRAKN [RPL8A]             3.41
5         LVGSEIYEKLKNYLKNY [CDC53]             1.09
6          SKSYTPRKLVLSSGENR [SMC4]             1.93
